Data provenance: patent US20250129103A1

Attribute: IC50
# assayed target: KRAS G12C (GMPPNP-loaded) and cRAF (Ras-binding domain) interaction (Homo sapiens (Human), UniProt P01116, C118S/C51S/C80L/G12C)
# Sequence (P01116 other isoform, or with tags, fused parts or gaps G12C/C51S/C80L/C118S): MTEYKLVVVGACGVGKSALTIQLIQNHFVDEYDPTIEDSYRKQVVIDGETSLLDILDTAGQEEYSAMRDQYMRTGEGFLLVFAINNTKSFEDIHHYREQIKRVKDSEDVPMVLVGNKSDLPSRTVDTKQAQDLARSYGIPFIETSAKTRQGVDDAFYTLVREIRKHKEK
# protocol details: Inhibition of KRAS G12C and cRAF binding (AlphaScreen)
# applied conditions: KRAS G12C loaded with GMPPNP, cRaf RBD, 2 hours preincubation; read-out: Raf-1 RBD K-Ras IC50

compound	recorded value
N#CC[C@H]1CN(c2nc(OC[C@@]34CCCN3C[C@H](F)C4)nc3c(F)c(-c4cccc5ccc(F)c(F)c45)ncc23)CCN1C(=O)/C=C/CN1C[C@@H]2C[C@H]1CO2 [Compound 225]	< 10 nM

[Q] Item N#CC[C@H]1CN(c2nc(OC[C@@]34CCCN3C[C@H](F)C4)nc3c(F)c(-c4cccc5cccc(Cl)c45)ncc23)CCN1C(=O)/C=C/CN1C[C@H]2COC[C@H]2C1 [Compound 228] has what recorded IC50?
[A] < 10 nM

[Q] Item C[C@@H]1CN(C/C=C/C(=O)N2CCN(c3nc(OC[C@@]45CCCN4C[C@H](F)C5)nc4c(F)c(-c5cccc6cccc(Cl)c56)ncc34)C[C@@H]2CC#N)C[C@H](C)O1 [Compound 186] has what recorded IC50?
[A] 10 to 100 nM

[Q] Item N#CC[C@H]1CN(c2nc(OCC34CCCN3CCC4)nc3c2CCN(c2cccc4cccc(Cl)c24)C3)CCN1C(=O)/C=C/CN1CC2CCC(C1)O2 [Compound 167] has what recorded IC50?
[A] < 10 nM

[Q] Item Cc1noc(/C=C/C(=O)N2CCN(c3nc(OCC45CCCN4CCC5)nc4c3CCN(c3cccc5cccc(Cl)c35)C4)C[C@@H]2CC#N)n1 [Example 1] has what recorded IC50?
[A] 10 to 100 nM

[Q] Item N#CC[C@H]1CN(c2nc(OCC34CCCN3CCC4)nc3c2CCN(c2cccc4cccc(Cl)c24)C3)CCN1C(=O)/C=C/CN1CCOCC1 [Example 11] has what recorded IC50?
[A] < 10 nM

[Q] Item CO[C@H]1CCN(C/C=C/C(=O)N2CCN(c3nc(OC[C@@]45CCCN4C[C@H](F)C5)nc4c(F)c(-c5cccc6cccc(F)c56)ncc34)C[C@@H]2CC#N)C1 [Compound 222] has what recorded IC50?
[A] < 10 nM
